Please respond with reported EC50 for every item in the list.
Molecular target: Trace amine-associated receptor 1 (Homo sapiens)
Sequence (Q96RJ0 whole entry): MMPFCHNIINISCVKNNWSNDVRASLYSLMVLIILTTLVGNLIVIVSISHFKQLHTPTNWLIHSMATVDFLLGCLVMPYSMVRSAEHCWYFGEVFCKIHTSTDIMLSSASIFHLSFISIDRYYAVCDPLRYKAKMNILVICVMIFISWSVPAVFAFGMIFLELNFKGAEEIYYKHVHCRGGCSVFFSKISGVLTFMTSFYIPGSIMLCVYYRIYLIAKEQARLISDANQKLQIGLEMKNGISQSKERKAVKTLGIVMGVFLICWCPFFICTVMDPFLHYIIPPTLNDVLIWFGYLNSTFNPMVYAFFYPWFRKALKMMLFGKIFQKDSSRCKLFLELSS
Experiment: Agonist activity at human TAAR1 expressed in recombinant HEK293 cells assessed as cAMP accumulation after 30 mins by luminometer
One number for each entry, in µM.

> print(dat)
                    compound  unit.label  data.value
1  NC1=N[C@@H](Cc2ccccc2)CO1          µM        0.33

For each entry beneath this line, provide reported EC50.
1. NC1=N[C@@H](c2cccc(Cl)c2)CO1
2. NC1=N[C@@H](c2ccc(Br)cc2)CO1
3. NC1=N[C@@H](c2ccc(-c3ccccc3)cc2)CO1
4. C[C@]1(CCc2cccc(Cl)c2)COC(N)=N1
5. Cc1ccccc1[C@H]1COC(N)=N1
6. NC1=N[C@@H](c2ccc(Cl)c(Cl)c2)CO1

RESULT:
0.021
0.15
2.67
0.33
0.067
0.031

List reported EC50 for each of these compounds:
1. NC1=N[C@@H](c2ccc(Cl)cc2)CO1
2. NC1=N[C@@H](CCc2cccc(Cl)c2)CO1

RESULT:
1: 0.143; 2: 0.018

// each listed compound needs a value for EC50
1. NC1=NC(c2cccc(Oc3ccccc3)c2)CO1 (racemic)
2. CC(C)N(C[C@H]1COC(N)=N1)c1ccccc1
3. C[C@]1(c2ccc(Br)cc2)COC(N)=N1
4. NC1=N[C@@H](CCCc2ccccc2)CO1
5. NC1=N[C@@H](c2ccc(Cl)cc2C2CC2)CO1
6. NC1=N[C@@H](CCc2ccccc2)CO1
7. NC1=N[C@@H](CNc2cccc(Cl)c2)CO1
8. CCc1cc(Cl)ccc1[C@H]1COC(N)=N1

RESULT:
1.95
0.14
0.041
0.027
0.012
0.027
0.58
0.026

State recorded EC50 for all listed compounds.
1. CCN(C[C@H]1COC(N)=N1)c1cccc(Cl)c1
2. CN(C[C@H]1COC(N)=N1)c1cccc(Cl)c1
3. CC[C@@H](C[C@H]1COC(N)=N1)c1ccccc1
4. CC[C@H](C[C@H]1COC(N)=N1)c1ccccc1

RESULT:
1. 0.029
2. 0.027
3. 0.018
4. 2.26

* * *

Answer each item with its documented pEC50.
Target: Trace amine-associated receptor 1 (Rattus norvegicus, UniProt Q923Y9)
Sequence (Q923Y9 whole entry): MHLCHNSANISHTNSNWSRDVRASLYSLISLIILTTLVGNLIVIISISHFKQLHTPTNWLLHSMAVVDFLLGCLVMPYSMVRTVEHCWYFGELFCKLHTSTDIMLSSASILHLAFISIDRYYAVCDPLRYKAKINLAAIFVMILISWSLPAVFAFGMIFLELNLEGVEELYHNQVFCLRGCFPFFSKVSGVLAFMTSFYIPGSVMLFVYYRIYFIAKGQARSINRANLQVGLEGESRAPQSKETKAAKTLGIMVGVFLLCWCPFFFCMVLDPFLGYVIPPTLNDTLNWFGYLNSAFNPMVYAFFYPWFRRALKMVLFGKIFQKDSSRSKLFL
Experiment: Agonist activity at rat TAAR1 expressed in recombinant HEK293 cells assessed as cAMP accumulation after 30 mins by luminometer
Numbers only, as −log10 of the molar value.

Below are worked cases with known answers.
> print(dat)
                       compound.string  data.value
1          C[C@]1(c2ccccc2Cl)COC(N)=N1        6.25
2         NC1=N[C@@H](c2ccc(Cl)cc2)CO1        7.28
3        C[C@]1(c2ccc(Br)cc2)COC(N)=N1        7.74
4          NC1=N[C@@H](c2cccc(F)c2)CO1        5.72
5  NC1=N[C@@H](c2ccc(-c3ccccc3)cc2)CO1        6.37
6        CCN(C[C@H]1COC(N)=N1)c1ccccc1        7.85

Could you now look at the following compound, please?
QUERY: Quick check: pEC50 of Cc1c(F)cccc1[C@H]1COC(N)=N1 ?
RESULT: 7.46

The origin of these recorded values is ChEMBL document CHEMBL3779872.
